# credit: PubChem BioAssay AID256

Test system: CD2F1 mice, L1210 leukemia ip, survival T/C
Experiment Description: NCI In Vivo Anticancer Drug Screen. Data for tumor model L1210 Leukemia (intraperitoneal) in CD2F1 (CDF1) mice
Setup Conditions: endpoint: mean survival time; dose: 400.0 mg/kg/injection; schedule: Q01DX009 (ip); vehicle: saline with Tween-80
Toxic doses and inconclusive results are not listed. How the source made its calls: active means survival T/C of 150% or more; inactive means T/C below 125% in these data.
Please answer using one outcome listed in y (active), n (inactive)

Q. Query: recorded result category for "CCOC(=O)C(C#N)(CCC#N)CCC#N" in this test
A. n

Q. Query: recorded result category for "Cc1c(C)c(C)c(CN2CCC(C)CC2)c(C)c1C" in this test
A. n

Q. Query: recorded result category for CCOC(=O)c1c[nH]c2oc(/C=N/N3CC(CN4CCOCC4)OC3=O)cc2c1=O (stereo unspecified) in this test
A. y

Q. Query: recorded result category for "Cc1oc(N)c(C#N)c1C" in this test
A. n

Q. Query: recorded result category for CC1Oc2ccccc2OC1C(=O)NN (stereo unspecified) in this test
A. n

Q. Query: recorded result category for "CNC(=O)Nc1ccc(S(N)(=O)=O)cc1" in this test
A. n

Q. Query: recorded result category for "O=CNc1cccc(Cl)c1" in this test
A. n

Q. Query: recorded result category for "CCC(=O)Nc1ccc(C)c(Cl)c1" in this test
A. n

Q. Query: recorded result category for "Cc1[nH]c(=S)[nH]c(=O)c1CCO" in this test
A. n

Q. Query: recorded result category for O/N=C(\c1ccccc1)C1C(/C(=N/O)c2ccccc2)C1c1ccccc1 (stereo unspecified) (tested in a mixture with another compound) in this test
A. n

Q. Query: recorded result category for "BrC(Br)(Br)c1ccc2ccccc2n1" in this test
A. n

Q. Query: recorded result category for "CCOC(=O)C(C)(C)Br" in this test
A. n

Q. Query: recorded result category for O=CC(Cc1ccccc1)CC(O)c1ccccc1 (stereo unspecified) in this test
A. n

Q. Query: recorded result category for CCOC(=O)C12CC=CC(CCC1)/C2=N\Nc1ccccc1 (stereo unspecified) in this test
A. n

Q. Query: recorded result category for "COC(=O)c1cc(Br)c(I)c([N+](=O)[O-])c1" in this test
A. n

Q. Query: recorded result category for "O=C(NC1c2ccccc2-c2ccccc21)C(F)(F)F" in this test
A. n

Q. Query: recorded result category for Fc1ccc2c(c1)CC(CBr)O2 (stereo unspecified) in this test
A. n

Q. Query: recorded result category for "CCCOC(=O)OCCC" in this test
A. n

Q. Query: recorded result category for "Cn1ccc(=Nc2ccc(NC(=O)c3ccc(N=c4ccn(C)c5ccc([N+](=O)[O-])cc45)cc3[N+](=O)[O-])cc2)cc1" in this test
A. n

Q. Query: recorded result category for O=C(O)C1CCC(=O)N1C(=O)OCc1ccccc1 (stereo unspecified) in this test
A. n

Q. Query: recorded result category for O=C1C=CC(=O)N1c1ccc(Cl)cc1 (tested in a mixture with another compound) in this test
A. n

Q. Query: recorded result category for "NN1C(=O)c2c(Cl)c(Cl)c(Cl)c(Cl)c2C1=O" in this test
A. n

Q. Query: recorded result category for CC(=O)OCC(O)C(O)C(O)C(O)CO (stereo unspecified) in this test
A. n

Q. Query: recorded result category for "COC(=O)C#CC(c1ccccc1)(c1ccccc1)c1ccccc1" in this test
A. n

Q. Query: recorded result category for Cc1ccc(N2OCCN(C(=O)c3cc([N+](=O)[O-])cc([N+](=O)[O-])c3)C2c2ccccc2)cc1 (stereo unspecified) in this test
A. n

Q. Query: recorded result category for "c1ccc(C2=NN(c3ccccc3)CN(c3ccccc3)N2)cc1" in this test
A. n

* * *

Test system: CD2F1 mice, L1210 leukemia ip, survival T/C
Experiment Description: NCI In Vivo Anticancer Drug Screen. Data for tumor model L1210 Leukemia (intraperitoneal) in CD2F1 (CDF1) mice
Setup Conditions: endpoint: mean survival time; dose: 400.0 mg/kg/injection; schedule: Q04DX003 (ip); vehicle: saline
Procedure: The antitumor activity of compounds was measured in mice bearing transplantable tumors. Survival or tumor size were measured and the results are expressed as the measurement made in the treated group (T) divided by the measurement made in the vehicle treated control group (C). The tumor model used in this assay is L1210 Leukemia (intraperitoneal) in CD2F1 (CDF1) mice
Inconclusive results and toxic doses are left out. Rule for the calls: active = survival T/C of 150% or more; inactive = T/C below 125% in these data.
Please answer using one outcome listed in YES (active), NO (inactive)

Q. Query: recorded result category for "COC(=O)/C=C(/Nc1ccccc1C(=O)O)C(=O)OC" in this test
A. NO

Q. Query: recorded result category for "c1ccc(-c2nnnn2-c2ccccc2)cc1" in this test
A. NO

Q. Query: recorded result category for "CCN(CC)CC(=O)Nc1c(Cl)cccc1Cl" in this test
A. NO

Q. Query: recorded result category for "Cc1ccc2nc(-c3ccc4nc(-c5ccc(N)cc5)sc4c3)sc2c1S(=O)(=O)O" in this test
A. NO

Q. Query: recorded result category for "Cc1cccc(=N)n1CCC(=O)O" in this test
A. NO

Q. Query: recorded result category for CC(C#N)(Nc1ccccc1)c1ccccc1 (configuration not stated) in this test
A. NO

Q. Query: recorded result category for "CCCCCCCCNC(=O)CC" in this test
A. NO

Q. Query: recorded result category for "CCCC/C=N/NC(=O)c1ccc[n+](C)c1" in this test
A. NO

Q. Query: recorded result category for "CCSSCCN" in this test
A. NO

Q. Query: recorded result category for O=[P+](O)C(O)c1ccccc1 (configuration not stated) in this test
A. NO

Q. Query: recorded result category for "O=C1CCSc2ccccc21" in this test
A. NO

Q. Query: recorded result category for "NCCCCS(=O)(=O)Nc1ccc(Nc2c3ccccc3nc3cc([N+](=O)[O-])ccc23)cc1" in this test
A. YES

* * *

Test system: CD2F1 mice, L1210 leukemia ip, survival T/C
Experiment Description: NCI In Vivo Anticancer Drug Screen. Data for tumor model L1210 Leukemia (intraperitoneal) in CD2F1 (CDF1) mice
Setup Conditions: endpoint: mean survival time; dose: 25.0 mg/kg/injection; schedule: Q01DX009 (ip); vehicle: saline with Tween-80; higher = longer survival
Inconclusive results and toxic doses are left out.
Recorded Endpoint: T/C

Q. Can you look up the measured T/C of "O=C(Nc1ccc(Cl)c(Cl)c1)Nc1c(Oc2ccc(Cl)c(Cl)c2)ccc(Cl)c1S(=O)(=O)O" for me?
A. 113 % of control

Q. Can you look up the measured T/C of "CN(N)c1cccc2c1CCCC2" for me?
A. 106 % of control

Q. Can you look up the measured T/C of "COc1cc(OC)c(NC(=O)Oc2ccc(Br)cc2Br)cc1Cl" for me?
A. 100 % of control

Q. Can you look up the measured T/C of Cc1ccccc1C(C)NC1=NCCO1 (centres undefined) for me?
A. 97 % of control

Q. Can you look up the measured T/C of "O=[N+]([O-])c1cc2ccccc2c(O)c1O" for me?
A. 102 % of control

Q. Can you look up the measured T/C of "Cc1c(C)c(C)c(CN2CCC(C)CC2)c(C)c1C" for me?
A. 90 % of control

Q. Can you look up the measured T/C of "Nc1ccc(C(OC(=O)c2cc3ccccc3c(Cc3c(O)c(C(=O)OC(c4ccc(N)cc4)(c4ccc(N)cc4)c4ccc(N)cc4)cc4ccccc34)c2O)(c2ccc(N)cc2)c2ccc(N)cc2)cc1" for me?
A. 101 % of control

Q. Can you look up the measured T/C of "COc1cc(NC(=O)CCl)ccc(=O)c1" for me?
A. 104 % of control

Q. Can you look up the measured T/C of "Cc1ccccc1N=C=S" for me?
A. 96 % of control

Q. Can you look up the measured T/C of "Nc1ncnc2c1ncn2CCCl" for me?
A. 102 % of control

Q. Can you look up the measured T/C of "Cn1ccc(=Nc2ccc(NC(=O)c3ccc(N=c4ccn(C)c5ccc([N+](=O)[O-])cc45)cc3[N+](=O)[O-])cc2)cc1" for me?
A. 113 % of control

Q. Can you look up the measured T/C of CC(=S)NC(O)C(=O)c1ccccc1 (centres undefined) for me?
A. 98 % of control

Q. Can you look up the measured T/C of "O=C1OCC(Cl)=C1Cl" for me?
A. 98 % of control

Q. Can you look up the measured T/C of "COc1cccc(/C(C)=N\NC(=O)c2ccccc2)c1" for me?
A. 98 % of control

Q. Can you look up the measured T/C of "COc1ccc(NC(=O)Oc2ccccc2C(C)C)cc1" for me?
A. 97 % of control

Q. Can you look up the measured T/C of CCN(CC)CCN1CC2CCCCC2C1 (centres undefined) for me?
A. 100 % of control

Q. Can you look up the measured T/C of "Brc1cscc1-c1cccc2ccccc12" for me?
A. 95 % of control

Q. Can you look up the measured T/C of "O=C(Nc1cccnc1)c1ccccc1" for me?
A. 113 % of control

Q. Can you look up the measured T/C of "CCCC(=O)Nc1cc2c3c(c1)CCCN3CCC2" for me?
A. 98 % of control

Q. Can you look up the measured T/C of CCCC(C(=O)O)C1=CCCC1 (centres undefined) for me?
A. 102 % of control

Q. Can you look up the measured T/C of COc1ccc(C(C)C(C)=O)cc1 (centres undefined) for me?
A. 91 % of control

Q. Can you look up the measured T/C of "O=C([S-])N1CCCCC1.O=C([S-])N1CCCCC1.[Ni+2]" for me?
A. 93 % of control

Q. Can you look up the measured T/C of "O=C1C(=O)C(Cl)=C(Cl)C(Cl)=C1Cl" for me?
A. 92 % of control

Q. Can you look up the measured T/C of "O=C(/C(=C\c1ccccc1)N1CCOCC1)c1ccc(Cl)cc1" for me?
A. 95 % of control

Q. Can you look up the measured T/C of "CC(C)(O)CN" for me?
A. 95 % of control

Q. Can you look up the measured T/C of "CCOC(=O)c1c(O)c2c([nH]c1=O)CCc1ccccc1-2" for me?
A. 95 % of control

Q. Can you look up the measured T/C of "CCc1cc2c(cc1C(=O)/C=C\c1cccc3ccccc13)C(C)(C)CCC2(C)C" for me?
A. 93 % of control

Q. Can you look up the measured T/C of "Cc1ccc(Cl)cc1NC(=O)CCl" for me?
A. 94 % of control

Q. Can you look up the measured T/C of O=c1[nH]cnc2c1ncn2C1OC(CO)C(O)C1O.O=c1[nH]cnc2c1ncn2C1OC(CO)C(O)C1O.[NH2-].[NH2-].[Pt+2] (centres undefined) for me?
A. 96 % of control
